target: T1, MSNW10, recombinant full length human MSLN (human, UniProt Q13421 296-598)
T1 construct: also called MSNW10.002; FL-MSLN
T1 sequence (Q13421 other isoform, or with tags, fused parts or gaps limits assumed): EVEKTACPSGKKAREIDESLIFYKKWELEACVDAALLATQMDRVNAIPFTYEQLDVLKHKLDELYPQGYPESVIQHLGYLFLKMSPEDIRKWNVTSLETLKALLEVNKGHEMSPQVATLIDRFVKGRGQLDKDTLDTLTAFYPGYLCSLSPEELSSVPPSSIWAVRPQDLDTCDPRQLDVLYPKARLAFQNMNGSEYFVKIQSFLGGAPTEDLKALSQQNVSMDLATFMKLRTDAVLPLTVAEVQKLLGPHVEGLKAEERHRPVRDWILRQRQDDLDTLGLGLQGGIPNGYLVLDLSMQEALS
measurement protocol: SPR, additional experiments
Each item that follows carries a reported Kd.

{"binder": "MSLNB569 (antibody, V domains shown, mAb; also called MSLNB569.001; MSNB569) VH: QVQLQQSGPGLVKPSQTLSLTCAISGDSVSSTRAAWNWIRQSPSRGLEWLGRTYYRSKWYNDYTVSVKSRITINPDTSKNQFSLHLNSVTPEDSAVYFCARGNVGRVDFWGQGTLVTVSS VL: EIVMTQSPLSLPVTPGEPASISCRSSQSLLHSDGYNYLDWYLQKPGQSPQLLIYLGSNRASGVPDRFSGSGSDTDFTLKISRVEAEDVGVYYCMQGLRTPLTFGPGTKVDIK", "Kd": "3.4 nM"}

# ---- query binder ----
-- ask Value lookup for Kd; key = MSLNB591 (antibody, V domains shown, mAb; also called MSNB591) VH: QVQLQQSGPGLVKPSQTLSLTCGISGDSVSSSSVAWNWIRQSPSRGLEWLGRTYYRSKWYNDYAISVRSRVTINPDTSKNQFSLQLNSVTPEDTAVYYCSRGVVGALDYWGQGTLVTVSS VL: DIVMTQSPLSLTVTPGEPASISCRSSQSLLFTNGYNSLDWYLQKPGQSPQFLIYLVSNRASGVPDRFSGSGSGTDFTLKISRVEAEDVGVYYCMQALRTPYTFGQGTKVDIK
-- reply 0.3 nM
